folding stability dG unfold reference
- experimentDescription: folding stability dG unfold (combined trypsin and chymotrypsin); higher = more stable
outcomeMeasure: folding stability dG unfold (kcal/mol)

>>> df
                                 biosequence               outcomemeasure  comparator  reportedvalue
 0  SAGGSAGGSGSSSMPVTVEVKPLATEVDPSNGLVTVTELVTVTRGDTTTLTVTTTTLPPGAPASAGGSAGGS [r12_1010_JUSTAS]  folding stability dG unfold           =          0.591
 1  ITITYDKETGELTVTLSVEIEREDGYLVRVSVTIRINPNGEIKIEKKIEVIKLPPAEVKLTDEELEKLKKES [r1_4_TrROS_Hall]  folding stability dG unfold           =           2.49
 2  SAGGSAGGSPLVKTTTSVDPVGPDRTLTTSTATLPSGGTTVTTTTFLTSPDGTVPVATTTTPSASAGGSAGG [r6_471_JUSTAS]  folding stability dG unfold           =          -0.11
 3  SAGGSAGGSAPPLDRVFVEVRVEPGEDAGVVVTHPDGRVLTAPADADVVFEFHPDVPVLVADASAGGSAGGS [r12_553_TrMRF]  folding stability dG unfold           =         -0.201
 4  SAGGMVTVSTPLGLGYSEEIKARMEEYVKAGDPEAAKELAQEYIDAKYPPKWPVEISFHENPAISKKSAGGS [r8_48_JUSTAS]  folding stability dG unfold           =         -0.396
 5  SAGGSAGGSAGMKIEVFPNTIKIYPENGKVLTFEAPDFGEEAIKEIAKAFPNAKIEPVEPSAGGSAGGSAGG [r17_545_TrMRF]  folding stability dG unfold           =         -0.189
 6  SAGYIIGYPIIEELFNAGKPEEIRKILKEAVEKDPDKIIIIEVPENPEIAKAIEEAFKEEGIPLIIIPESAG [r14_236_TrMRF]  folding stability dG unfold           =          0.929
 7  SAGGPPKWKEVEFRMPPEDLKPDDIVDELQDDGIEIYNGDKPIDPGKSVDDLMQDNPNMPFTIKVWDSAGGS [r8_38_TrROS]  folding stability dG unfold           <             -1
 8  SAGPWKIEVEQYDPNGKKEEIEDPEDLLDLAKDLPPNRMVHIKIPNGRETIMFQNPDGNVFVLKIERPESAG [r5_506_TrROS]  folding stability dG unfold           =         -0.374
 9  SAGGSAGGSADPQKVKEIAEKLQEKGYTVDVDRGPDSWTIRVENPKSGGKKKHKIDDPEDVLSAGGSAGGSA [r18_278_TrROS]  folding stability dG unfold           <             -1
10  SAGSRILERLREEGLTITKVTSVEKGPGYERIEVETALPDGTTGKVKVTRDPADPDKIEVELEFTPAEVSAG [r5_683_JUSTAS]  folding stability dG unfold           =           1.38
11  SAGGSAGGSAGGTGPDTPVTIETTVESVVYEGPEVKVVETFEKKITVTIPPTANPEKVSLSAGGSAGGSAGG [r7_591_JUSTAS]  folding stability dG unfold           <             -1
12  SAGGSAGGSFKVPGGYKVVSVEEDPENKTVEITFADGSKLTIDIEDPNVFKPVKVEAPEGFDVSAGGSAGGS [r12_149_TrMRF]  folding stability dG unfold           =           1.89
13  SAGGSAGGSAGMVTTSETITVTVTLPTGPTETITVPVTTTVPVVPVSPEVAAADPAAVAALLSAGGSAGGSA [r18_114_JUSTAS]  folding stability dG unfold           <             -1
14  SAGGSSVSSVTLLSSETYTEGEKTFKRTTYLVPLPDGTTAIVTTEETTPPENPPEVEVSSSTTPLPGSAGGS [r16_121_JUSTAS]  folding stability dG unfold           =           1.63
15  SAGGSAGGSAGGGMEFSTVTVKRTLKTLGKTEVTTVPVVNPVPPPPPLGPENIARSRGVLSAGGSAGGSAGG [r7_79_JUSTAS]  folding stability dG unfold           <             -1
16  SEEPVEERDIVVKPGEEVKLELPEEPETVRVYVFNEDGELIEEREFPPGATPEELEGLKLPPGAVVRIVRSA [r9_215_TrROS_Hall]  folding stability dG unfold           =            2.2
17  SAGGSAGGSAGGEKVTLTLELPAEEIEELAKALAPPGAKVKITKISYDKENKKVTIEIESAGGSAGGSAGGS [r10_1030_TrROS_Hall]  folding stability dG unfold           =           1.23
18  SAGGSAGGSAGGGMKLRLVTYSITTTNKVFPSLEEALAAPPDETDGVDEIISSSLKPLLSAGGSAGGSAGGS [r10_729_JUSTAS]  folding stability dG unfold           =         -0.326
19  SAGGSAGGSAGGDPKKKKGGTFTLTFKLKFTVNIPEGKVEYEFKAKIKITINEPPDFGLSSAGGSAGGSAGG [r7_485_TrMRF]  folding stability dG unfold           =           5.67
20  SAGGSAGGSAGGSMVPVPVNILKLAPGGIPLGTYPVEPLRKEGISPEEFAKKNGYIISGSAGGSAGGSAGGS [r10_153_JUSTAS]  folding stability dG unfold           =         -0.827
21  SAGGSAGGSKTVEITITRKDGKKLKIEFYPDGYIKIYDSNGKLVKTIKVDPNASIEEILKALKSAGGSAGGS [r12_990_TrROS_Hall]  folding stability dG unfold           =           3.39
22  SAGGSAGGSAGGKDEKPKPLKVPVIVAPAPEYLELAKKLLPPDKAKVIEKKDDKVVIAFGSAGGSAGGSAGG [r7_670_TrMRF]  folding stability dG unfold           =         -0.533
23  SAGGWVKDPDGQTVEMKVLDPGMNKDNAKPFADNIAEQLHRQHGMNPNNVKVKVETDPENGTVRVKVKSAGG [r13_913_TrROS]  folding stability dG unfold           <             -1
24  SAGMVVTINFSIPETGETITITIPVPEDDPVVKALGAPSAEDIAAYLAPQLKEKGINVQNPTVTVTEPSSAG [r5_722_JUSTAS]  folding stability dG unfold           =          0.705
25  SAGGSAPKPDWIVRIEITVKFPGKTKKIDIVIDSPEALNQIINELKDEGFKDVEPKIEWVPLEEMKSAGGSA [r15_1015_TrROS]  folding stability dG unfold           =          0.915
26  SKPILKIKINIPVLKDKNGKEIIPSPNDVLAALEKLGIPVDKAEITKIGKNTIPILILVDLVDGKAYVKDSA [r9_225_TrMRF]  folding stability dG unfold           =           1.13
